Conditions: in toluene, 323.15 K
Reported Property: solubility (mole fraction)
Lab note: jot down the number only; don't add units.

Can you share its solubility (mole fraction)? I mean this compound: `Cn1cc([N+](=O)[O-])cn1` 0.0276

----------
Settings: in sec-butanol, 318.15 K
Reported Property: solubility (mole fraction)
Lab note: jot down the number only; don't add units.

Can you share its solubility (mole fraction)? I mean this compound: `Cn1cc([N+](=O)[O-])cn1` 0.00501

----------
Settings: in 2-butanone, 313.15 K
Reported Property: solubility (mole fraction)
Lab note: jot down the number only; don't add units.

Can you share its solubility (mole fraction)? I mean this compound: `Cn1cc([N+](=O)[O-])cn1` 0.021

----------
Conditions: in acetic acid, 323.15 K
Reported Property: solubility (mole fraction)
Lab note: jot down the number only; don't add units.

Can you share its solubility (mole fraction)? I mean this compound: `Cn1cc([N+](=O)[O-])cn1` 0.0012

----------
Conditions: in ethyl acetate, 313.15 K
Reported Property: solubility (mole fraction)

Can you share its solubility (mole fraction)? I mean this molecule: `Cn1cc([N+](=O)[O-])cn1` 0.0265

----------
Conditions: in acetone, 293.15 K
Reported Property: solubility (mole fraction)
Lab note: jot down the number only; don't add units.

Can you share its solubility (mole fraction)? I mean this compound: `Cn1cc([N+](=O)[O-])cn1` 0.0299

----------
Conditions: in toluene, 298.15 K
Reported Property: solubility (mole fraction)
Lab note: jot down the number only; don't add units.

Can you share its solubility (mole fraction)? I mean this molecule: `Cn1cc([N+](=O)[O-])cn1` 0.0112

----------
Conditions: in isopropanol, 318.15 K
Reported Property: solubility (mole fraction)
Lab note: jot down the number only; don't add units.

Can you share its solubility (mole fraction)? I mean this compound: `Cn1cc([N+](=O)[O-])cn1` 0.0085

----------
Settings: in sec-butanol, 293.15 K
Reported Property: solubility (mole fraction)

Can you share its solubility (mole fraction)? I mean this molecule: `Cn1cc([N+](=O)[O-])cn1` 0.00112

----------
Conditions: in methanol, 283.15 K
Reported Property: solubility (mole fraction)
Lab note: jot down the number only; don't add units.

Can you share its solubility (mole fraction)? I mean this compound: `Cn1cc([N+](=O)[O-])cn1` 0.00628

----------
Details: in n-pentanol, 318.15 K
Reported Property: solubility (mole fraction)
Lab note: jot down the number only; don't add units.

Can you share its solubility (mole fraction)? I mean this compound: `Cn1cc([N+](=O)[O-])cn1` 0.00469

----------
Settings: in ethyl acetate, 303.15 K
Reported Property: solubility (mole fraction)
Lab note: jot down the number only; don't add units.

Can you share its solubility (mole fraction)? I mean this compound: `Cn1cc([N+](=O)[O-])cn1` 0.0208

----------
Details: in acetic acid, 298.15 K
Reported Property: solubility (mole fraction)
Lab note: jot down the number only; don't add units.

Can you share its solubility (mole fraction)? I mean this molecule: `Cn1cc([N+](=O)[O-])cn1` 0.000508

----------
Conditions: in acetone, 303.15 K
Reported Property: solubility (mole fraction)
Lab note: jot down the number only; don't add units.

Can you share its solubility (mole fraction)? I mean this molecule: `Cn1cc([N+](=O)[O-])cn1` 0.0485

Data origin: BigSolDB 2.1
